System: HS 578T breast
ASSAY_REMARKS: NCI tumour cell line growth inhibition, 48 h
Overview of reported TGI across a group of compounds:

COMPOUND | SYSTEM_UNDER_TEST | READOUT_RELATION | TGI / µM
O=C(O)C1C(C(=O)O)C2C(=O)C=CC1N2Cc1ccccc1 (stereo not given) | HS 578T breast | = | 6.1
O=C(O)[C@@H]1C2CC([C@@H]1C(=O)O)[C@H](N1C(=O)CCC1=O)[C@@H]2Br (stereo not given in full) | HS 578T breast | > | 100
CC1=C(C(=O)Nc2cccc3c2C(=O)NC3=O)CC(C(=O)Nc2cccc3c2C(=O)NC3=O)=C(C)N1 | HS 578T breast | > | 100
C[C@]12CC[C@H]3[C@@H](CCC4=CC(=O)CC[C@@H]43)[C@@H]1CC[C@@H]2OC(=O)N(CCCl)N=O | HS 578T breast | = | 34.2
CCCCc1ccc(Nc2nc(Cl)c3c(ncn3COCCOC(C)=O)n2)cc1 | HS 578T breast | = | 55.2

----------
Overview of reported TGI across a group of compounds:
Test system: OVCAR-5 ovarian
ASSAY_REMARKS: NCI tumour cell line growth inhibition, 48 h

COMPOUND | TGI
CCc1ccc(NCc2cc(OC)c(OC)c(OC)c2)cc1 | > 76.1 µM
C=C1C(=O)C([Si](C)(C)C)=C2C=C(C)C3(CC3)C12C (stereo unspecified) | > 100 µM
COc1cc(/C=C\c2ccccn2)cc(OC)c1OC | > 100 µM
COc1ccc(/C=C2/C(C)=NN(c3cccc(Cl)c3)/C2=N/c2nc3ccccc3s2)cc1 | 69.6 µM
O=C1CSC2(CC(/C=C/c3ccccc3O)=NN2c2cccc(S(=O)(=O)O)c2)N1c1nc2ccccc2s1 (stereo unspecified) | 64.4 µM
C[C@]12CC[C@H]3[C@@H](CCC4=CC(=O)CC[C@@H]43)[C@@H]1CC[C@@H]2OC(=O)N(CCCl)N=O | 49.9 µM
Nc1ccn(C2CC(O)C(COP(O)(=S)OC3CC(n4ccc(N)nc4=O)OC3CO)O2)c(=O)n1 (stereo unspecified) | > 100 µM
COc1cc2nc(Cl)nc(Nc3cccc(C(=O)/C=C/c4ccccc4)c3)c2cc1OC | > 100 µM
CCOC(=O)/C(N=Nc1ccc(-n2c(C)nc3ccccc3c2=O)cc1)=C(/C)O | > 100 µM
CCOC(=O)c1nc2ccc(C(F)(F)F)cc2nc1NCc1ccc(Cl)c(Cl)c1 | > 100 µM
CN(C)CCCNC(=O)c1cc(NC(=O)CCNS(=O)(=O)c2ccc3c(c2)C(=O)c2ccccc2C3=O)cn1C | > 100 µM

----------
Tested on: SK-OV-3 ovarian
ASSAY_REMARKS: NCI tumour cell line growth inhibition, 48 h
Overview of reported GI50 across a group of molecules:

STRUCTURE_STRING | GI50
COc1cc2cc(Oc3ccc(NC(=O)Nc4ccc(Cl)c(C(F)(F)F)c4)cc3)c(C)nc2cc1OCCN1CCCCC1 | 2280 nM
CCOC(=O)Cc1c[nH]c(=S)[nH]c1=O | > 100000 nM
CCc1c(C)[nH]c(/C=C2\N=C(c3ccc[nH]3)C=C2OC)c1C | 2950 nM
O=C(CCl)c1ccc([N+](=O)[O-])o1 | 14900 nM
CCn1c(-c2nonc2N)nc2cncc(C(=O)N3CCNCC3)c21 | > 25000 nM
CCC[CH2][Sn]([CH2]CCC)([O]C(C)=O)[O]C(C)=O | 1930 nM
CC[C@](C)(O)C(=O)O[C@H]1C(=O)O[C@@H]2C[C@H]3C(C)=CC(=O)[C@@H](O)[C@]3(C)[C@H]3[C@@]4(O)OC[C@]32[C@@H]1[C@@H](C)[C@H]4O | 1340 nM
CC[C@H](Nc1nc(N)nc(C)c1C#N)c1nc2cccc(CN(C)c3ncc(C(=O)NO)cn3)c2c(=O)n1-c1ccccc1 | 969 nM
COc1cccc(C2=C(c3cn(C)c4ccccc34)C(=O)NC2=O)c1 | 12700 nM
COc1cc2c(cc1OC)-c1ccc3cc4c(cc3c1N(CCN1CCCC1)C2)OCO4 | 526 nM
C=C(C)[C@@H]1CC[C@]2(C(=O)NCCCN)CC[C@]3(C)[C@H](CC[C@@H]4[C@@]5(C)CC[C@H](O)C(C)(C)[C@@H]5CC[C@]43C)[C@@H]12 | 17700 nM
CN(C)CCCNC(=O)c1cc(NC(=O)CCNS(=O)(=O)c2ccc3c(c2)C(=O)c2ccccc2C3=O)cn1C | > 100000 nM

----------
Overview of reported TGI across a group of molecules:
System: UO-31 renal
ASSAY_REMARKS: NCI tumour cell line growth inhibition, 48 h
*1 amine or outer side, *2 acyl side, *3 side chain or, on linkers, in order; H or OH if unused. Where a SMILES comes first, the peptide text is derived from it. Bridges are numbered along the chain shown (N, C = ends). [ ]: non-standard residue; d: D form. The star is where a group is joined. X38 = CC[C@H](C)[C@@H](N[*:1])[C@@H](O)CC(=O)[*:2]; NMeY = CN[C@@H](Cc1ccc(O)cc1)C(=O)O; dNMeL = CN[C@H](CC(C)C)C(=O)O; Hiv = CC(C)[C@H](O)C(=O)O; Pyruvoyl = CC(=O)C(=O)*

MOLECULE | SYSTEM_UNDER_TEST | TGI
Fc1ccc(-c2nc3n(c2-c2ccncc2)CCS3)cc1 | UO-31 renal | > 25 µM
O=c1n(/N=C/c2ccccc2)c(=O)n2n1C1C=CC2CC1 | UO-31 renal | > 100 µM
Fc1cc(C2=C[C@H](c3ccc(Cl)cc3)NC(=S)N2)c(Cl)cc1Cl | UO-31 renal | > 100 µM
COc1ccc(C2c3cc4c(cc3C(O)C3CCC(=O)N23)OCO4)cc1 (configuration not stated) | UO-31 renal | > 100 µM
Cc1ccc(C(=O)Nc2ccc(S(=O)(=O)O)c3cc(S(=O)(=O)O)cc(S(=O)(=O)O)c23)cc1NC(=O)c1cccc(N)c1 | UO-31 renal | > 100 µM
COc1ccccc1C1CC(=O)CC(c2ccccc2OC)C12C(=O)NC(=S)NC2=O (configuration not stated) | UO-31 renal | > 100 µM
CCN1C(=O)N(CC)C2C1NN=c1s/c(=C3\C(=O)N(C(C)C)c4ccccc43)c(=O)n12 (configuration not stated) | UO-31 renal | > 100 µM
O=c1[nH]c(=O)n(C2OC(CO)C(O)C(F)C2O)cc1F (configuration not stated) | UO-31 renal | > 100 µM
CC[C@H](C)[C@H]1NC(=O)[C@@H](NC(=O)[C@@H](CC(C)C)N(C)C(=O)[C@@H]2CCCN2C(=O)C(C)=O)[C@@H](C)OC(=O)[C@H](Cc2ccc(OC)cc2)N(C)C(=O)[C@@H]2CCCN2C(=O)[C@H](CC(C)C)NC(=O)[C@H](C(C)C)OC(=O)C[C@@H]1O (Pyruvoyl-P[dNMeL]T[X38][Hiv]LP[NMeY](Me); ester 3-C) | UO-31 renal | 0.137 µM
CCOC(=O)c1c2c(n(CC(C)C)c1C)-c1nc[nH]c1C(=O)C2=O | UO-31 renal | 29.9 µM
CSc1nc2ccccc2c(=O)n1/N=C1\C(=O)N(CN2CCCCC2)c2ccc(Cl)cc21 | UO-31 renal | > 100 µM
COc1cccc(OC(=O)c2ccccc2Nc2ccnc(C(F)(F)F)c2)c1 | UO-31 renal | > 100 µM
Oc1ccccc1/C=N/Nc1nnc2c3ccccc3c3ccccc3c2n1 | UO-31 renal | > 100 µM
O=C1c2cc3c(cc2CC12Cc1cc4c(cc1C2=O)CCCC4)CCCC3 | UO-31 renal | > 100 µM
CCOC(=O)c1nc2ccc(C(F)(F)F)cc2nc1NCc1ccc(Cl)c(Cl)c1 | UO-31 renal | > 100 µM
COc1ccc(/C=C2/C(C)=NN(c3cccc(Cl)c3)/C2=N/c2nc3ccccc3s2)cc1 | UO-31 renal | 44.1 µM
COC(=O)[C@H](Cc1ccccc1)NC(=O)NCCN(CCNC(=O)N[C@@H](Cc1ccccc1)C(=O)OC)C(=O)N[C@@H](Cc1ccccc1)C(=O)OC | UO-31 renal | 45.5 µM

----------
Test system: EKVX NSCLC
ASSAY_REMARKS: NCI tumour cell line growth inhibition, 48 h

MOLECULE | GI50
CCn1c(-c2nonc2N)nc2cncc(C(=O)N3CCNCC3)c21 | > 25000 nM
CC12CCC(=O)C(O1)C1C(=O)c3cc4ccccc4cc3C(=O)C12 (stereo not given) | 23400 nM
CCN(CC)c1ccc(/C=C/c2cc(C)c3ccccc3n2)cc1 | 4950 nM
Cc1cc(N2CCCCC2)nc(N(CCNc2ccnc3cc(Cl)ccc23)Cc2ccco2)n1 | 2090 nM
O=c1cc(CNc2cc(F)cc(F)c2)c2ccc(I)cc2[nH]1 | 2330 nM
CC12CCC=CC1CCC1C2CCC2(C)C(c3ccc(=O)oc3)CCC12O (stereo not given) | 63.6 nM
CC[C@H](Nc1nc(N)nc(C)c1C#N)c1nc2cccc(CN(C)c3ncc(C(=O)NO)cn3)c2c(=O)n1-c1ccccc1 | 1690 nM
COc1ccc(-c2ccc(-c3ccc(C(=N)N)nc3)s2)cc1 | 1700 nM
CC[C@](C)(O)C(=O)O[C@H]1C(=O)O[C@@H]2C[C@H]3C(C)=CC(=O)[C@@H](O)[C@]3(C)[C@H]3[C@@]4(O)OC[C@]32[C@@H]1[C@@H](C)[C@H]4O | 1610 nM
CCc1c(C)[nH]c(/C=C2\N=C(c3ccc[nH]3)C=C2OC)c1C | 707 nM
CCN=C1C=CC(=C(c2ccc(N(C)C)cc2)c2ccc(N(C)C)cc2)c2ccccc21 | 44.5 nM
CC1=C(C(=O)OCc2ccccc2)C(c2ccc3c(c2)OCO3)n2c(nc3ccccc32)N1 (stereo not given) | 692 nM
CC1(C)CCC2(C(=O)OC3OC(CO)C(O)C(O)C3O)CC[C@]3(C)C(=CCC4C5(C)CC[C@H](OC6OC(C(=O)O)C(O)C(O)C6O)C(C)(C)C5CCC43C)C2C1 (stereo not given in full) | 3390 nM
CN(C)CCCNC(=O)c1cc(NC(=O)CCNS(=O)(=O)c2ccc3c(c2)C(=O)c2ccccc2C3=O)cn1C | > 100000 nM
COc1cc2c(cc1OC)-c1ccc3cc4c(cc3c1N(CCN1CCCC1)C2)OCO4 | 953 nM
CC(C)(O)c1ccc(N2CCN(c3nnc(Cc4ccccc4)c4ccccc34)CC2)nc1 | 4000 nM
COc1cc(Cn2cc3c(c2)-c2oncc2CC3)cc(OC)c1OC | 46.7 nM
Cc1ccc2[nH]c(C(=O)NN3C(=O)CSC34CCCCC4C)c(-c3ccccc3)c2c1 (stereo not given) | 17000 nM
COc1cc2cc(C(=O)N3CC(CCl)c4c3cc(NC(=O)C(C)(C)c3ccccc3[N+](=O)[O-])c3ccccc43)[nH]c2c(OC)c1OC (stereo not given) | 127000 nM
Fc1ccc2[nH]cc(Cc3c[nH]c4ccc(F)cc34)c2c1 | 17600 nM
